- Tested on: Caupolican (Caup) homeodomain DNA-binding domain
- Sequence: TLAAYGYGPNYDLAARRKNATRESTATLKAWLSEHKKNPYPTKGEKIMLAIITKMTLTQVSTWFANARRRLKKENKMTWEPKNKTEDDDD
- assay_comment: PBM E-score (8-mer, recovered from the published 9-mer minima) (E-score (dimensionless, -0.5 to 0.5)); higher = stronger relative binding preference, active = 0.31 or more
The entries come from a sample that favours hits as a whole. How many sequences the whole screen found active is unknown.
Classes used: t (active), f (inactive)

# biopolymer_sequence, cat
measured = [
    ("AGTTGGTG", "f"),
    ("GAGAATCA", "f"),
    ("ATTGTACA", "t"),
    ("GTTTGTTA", "f"),
    ("ATTGTACC", "f"),
    ("CTTGTAGA", "f"),
    ("CGCTAGAC", "f"),
    ("GAGCTGTA", "f"),
    ("ATTTGTTA", "f"),
    ("CCTGTTCA", "f"),
    ("GCTTGTTA", "t"),
    ("CTCGTACC", "f"),
    ("CTTGTCCC", "f"),
    ("ACAGGCGT", "f"),
    ("CTTGTTCC", "t"),
    ("GTTGTACA", "t"),
    ("GCCACCAA", "f"),
    ("ATATCTAC", "f"),
    ("AGCGTACC", "f"),
    ("GTTGTGCA", "f"),
    ("ACCCTGGG", "f"),
    ("AGTTGTTC", "f"),
]

----------
- Tested on: Caupolican (Caup) homeodomain DNA-binding domain
- Sequence: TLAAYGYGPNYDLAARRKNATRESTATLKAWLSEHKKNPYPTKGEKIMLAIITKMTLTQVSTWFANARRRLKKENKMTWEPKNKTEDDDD
- assay_comment: PBM E-score (8-mer, recovered from the published 9-mer minima) (E-score (dimensionless, -0.5 to 0.5)); higher = stronger relative binding preference, active = 0.31 or more
Many of the other results were omitted from the sample, so hits are more common in it than they were. The hit rate among all sequences tested is not known here.

# biopolymer_sequence, PBM E-score
rows = [
    ("GATGTGCA", 0.102),
    ("CAAGTACC", 0.159),
    ("GCAACTAC", 0.0804),
    ("CATGTGCA", 0.119),
    ("AGATATCC", 0.0875),
    ("ACGCTGTG", 0.0319),
    ("ATGTATTG", 0.344),
    ("CATGTGTA", 0.308),
    ("GCCATCGA", -0.0979),
    ("CCTGTACA", 0.32),
    ("AGCGAGCG", -0.0955),
    ("CAGAAGAG", -0.0491),
    ("ATGTTCGA", 0.34),
    ("CATGTACA", 0.469),
    ("AATTCGTC", 0.0479),
    ("CTGTATTA", 0.159),
    ("ATTAGTGC", 0.105),
    ("ATGTATTC", 0.222),
    ("GTGTATTA", 0.297),
    ("GATGTACA", 0.404),
    ("ATGTATTA", 0.373),
    ("ACTACCAA", 0.167),
]

----------
- Tested on: Caupolican (Caup) homeodomain DNA-binding domain
- Sequence: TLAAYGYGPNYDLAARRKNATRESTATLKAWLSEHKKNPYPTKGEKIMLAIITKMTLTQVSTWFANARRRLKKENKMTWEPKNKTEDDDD
- assay_comment: PBM E-score (8-mer, recovered from the published 9-mer minima) (E-score (dimensionless, -0.5 to 0.5)); Drosophila protein; higher = stronger relative binding preference, active = 0.31 or more
Shown is part of a subset that was picked to be rich in hits. The hit rate among all sequences tested is not known here.
Classes used: 1 (yes) (active), 0 (no) (inactive)

# biopolymer_sequence, cat
data = [
    ("ATCATCCG", "0 (no)"),
    ("TTACAAAA", "0 (no)"),
    ("GCCGTCCC", "0 (no)"),
    ("CACACTGC", "0 (no)"),
    ("CTGTTAGC", "0 (no)"),
    ("CCGAGGGC", "0 (no)"),
    ("GCTGGTAC", "0 (no)"),
    ("GCCGGGGA", "0 (no)"),
    ("AATTGTAA", "0 (no)"),
    ("ATTTGTAA", "0 (no)"),
    ("GTTGTTAA", "1 (yes)"),
    ("ATGTTAGG", "0 (no)"),
    ("GACACAAC", "0 (no)"),
    ("AACACAAA", "0 (no)"),
    ("AACACAAG", "0 (no)"),
    ("CGTTATTA", "0 (no)"),
    ("AATTCAAG", "0 (no)"),
    ("CTTATTAC", "0 (no)"),
    ("AAGGACTA", "0 (no)"),
    ("GATTGTAA", "0 (no)"),
    ("GAGCGGCA", "0 (no)"),
    ("CTCATCTC", "0 (no)"),
    ("CTACAAGA", "0 (no)"),
    ("ATTGTTAA", "0 (no)"),
    ("AACACAAT", "1 (yes)"),
    ("GACGCGTC", "0 (no)"),
    ("GTGGTTGA", "0 (no)"),
    ("AAATGCAA", "0 (no)"),
    ("GTGTTAGA", "0 (no)"),
    ("AACACAAC", "1 (yes)"),
    ("CACACAAC", "0 (no)"),
    ("ATAGCTTC", "0 (no)"),
    ("TCTTGTAA", "1 (yes)"),
    ("ATTGCGAC", "0 (no)"),
    ("AAGAGAGA", "0 (no)"),
    ("AATTGTAT", "0 (no)"),
    ("ACTTGTAA", "1 (yes)"),
    ("TGCAAAAA", "0 (no)"),
    ("CAGGCCTC", "0 (no)"),
    ("GCTGTTAA", "0 (no)"),
    ("ATCCTGAG", "0 (no)"),
    ("AACCTTAA", "0 (no)"),
    ("CTTGAAGA", "0 (no)"),
    ("AGTTGTAT", "0 (no)"),
    ("ATACACAC", "0 (no)"),
    ("ACTTGTAT", "1 (yes)"),
]
